Kindly supply the reported INHIBITION values for the records listed here.
- Test system: Plasmodium berghei
- PROTOCOL DESCRIPTION: Screen against P. berghei liver stage (PbLuc), transformed with Luciferase, at 2uM
- Format: functional, HepG2
- APPLIED CONDITIONS: tested at 2 uM
Among all 68,000 compounds or so, about 2,700 (4%) showed an effect of 50% or more. For the sample, strong results were picked, then their nearest neighbours and some compounds at random.
Numbers only, in %.

Previously resolved entries follow.
Req: Look at this compound and give its reported INHIBITION. COC1CN(C(=O)NC2CCCC2)CCC(=O)N(C)c2ccccc21 (stereo unspecified)
Resp: 15.96

Req: Another compound: O=C(NCC1Cn2nnc(-c3ccsc3)c2CO1)c1ccc[nH]1 (stereo unspecified)
Resp: 34.16

Req: Another compound: O=C(Nc1ccccc1)[C@H]1O[C@H](CCN2CCNCC2)CC[C@@H]1O
Resp: 51.81

Req: Another compound: COCCNC(=O)[C@@]12CCO[C@@H]1CCN(Cc1cc(C)on1)C2
Resp: 10.43

Req: Another compound: O=C(Cc1c[nH]c2ccccc12)N1CCN(C(=O)c2ccoc2)CC1
Resp: 54.49

Dear colleague, could you send me INHIBITION for each of the items below? Thanks.
1. COc1cc(Cl)ccc1C(=O)NCc1n[nH]c(C)n1
2. O=C(Cc1c[nH]c2ccccc12)N1CCC(Nc2ccccc2)CC1
3. N#Cc1ccc(CN2CCNC(=O)C2c2cccs2)cc1 (stereo unspecified)
4. Cc1ccc(CN2C[C@H](OCC3CCOCC3)[C@H]3COC[C@H]32)o1

Resp:
29.39
-0.6
-15.67
18.32

Dear colleague, could you send me INHIBITION for each of the items below? Thanks.
1. O=C(Nc1ccccc1)[C@H]1O[C@H](CCN2CCCCC2)CC[C@@H]1O
2. CN1CCN(CC[C@@H]2CC[C@H](O)[C@@H](C(=O)Nc3ccccc3)O2)CC1

Resp:
1. 4.04
2. 29.85
